Tested on: nude mice, LX-1 lung xenograft intrarenal, tumor weight T/C
Experiment: NCI In Vivo Anticancer Drug Screen. Data for tumor model Human Lung LX-1 Xenograft (intrarenal inoculation) in NU/NU Swiss (nude) mice
Conditions: endpoint: mean tumor weight change; dose: 800.0 mg/kg/injection; schedule: Q01DX010 (sc); vehicle: saline with Tween-80; higher = larger tumour
Records with an inconclusive call do not appear.
Give measured T/C for each item. Keep answers brief.

Lab note: O=CN(SSN(C=O)C1CCCCC1)C1CCCCC1 gave T/C of 48 % of control

Lab note: CCOC(=O)c1ccc(NC(=O)Nc2nccs2)cc1 gave T/C of 66 % of control

Lab note: O=Cc1ccc(C(Cl)(Cl)Cl)cc1 gave T/C of 77 % of control

Lab note: CCO/C=C1\SC(=S)N(c2ccccc2C)C1=O gave T/C of 89 % of control

Lab note: Cc1cc(O)c(N=Nc2ccc(C(=O)O)cc2)cc1C gave T/C of 59 % of control

Lab note: Clc1ccc(CN2COc3c(ccc4cccnc34)C2)cc1Cl gave T/C of 110 % of control

Lab note: Clc1ccc(C(c2ccccc2Cl)C(Cl)Cl)cc1 (stereo unspecified) gave T/C of 40 % of control

Lab note: CO[C@H]1C[C@@H]2CC[C@@H](C)[C@@](O)(O2)C(=O)C(=O)N2CCCC[C@H]2C(=O)O[C@H]([C@H](C)C[C@@H]2CC[C@@H](O)[C@H](OC)C2)CC(=O)[C@H](C)C=C(C)[C@@H](O)[C@@H](OC)C(=O)[C@H](C)C[C@H](C)/C=C/C=C/C=C1C gave T/C of 69 % of control

Lab note: COC(=O)Nc1ccc(Cc2ccc(NC(=O)OC)cc2)cc1 gave T/C of 68 % of control

Lab note: Oc1ccc(SCc2ccc(NCc3ccccc3)cc2)cc1 gave T/C of 54 % of control

Lab note: O=C(N/N=C\c1cc(Br)cc(Br)c1O)N/N=C/c1cc(Br)cc(Br)c1O gave T/C of 67 % of control
